Tested on: SW-620 colon
method-notes: NCI tumour cell line growth inhibition, 48 h
Documented TGI across a set of compounds
metric: TGI

[[record]]
compound = "CN1CCN(CN2C(=O)C3C4C=CC(C3C2=O)C2C(=O)N(CN3CCN(C)CC3)C(=O)C42)CC1 (centres undefined)"
metric = "TGI"
experimental_result = "7.58 µM"

[[record]]
compound = "COc1cc2c3c(c4cc(OC)c(OC)cc4c2cc1OC)C(=O)C1CCC(=O)N1C3 (centres undefined)"
metric = "TGI"
experimental_result = "> 100 µM"

[[record]]
compound = "Cc1[nH]c2ccccc2c1-c1cc(-c2cc(-c3c(C)[nH]c4ccccc34)on2)no1"
metric = "TGI"
experimental_result = "> 100 µM"

[[record]]
compound = "O=C(NC(CO)Cc1ccc(Oc2cc(CC(CO)NC(=O)OCc3ccccc3)ccc2OC(=O)OCc2ccccc2)cc1)OCc1ccccc1 (centres undefined)"
metric = "TGI"
experimental_result = "> 100 µM"

[[record]]
compound = "CC1(C)OCCn2c1nc1c(N3CCOCC3)nc(-c3cnc(N)nc3)nc12"
metric = "TGI"
experimental_result = "> 100 µM"

[[record]]
compound = "CC(=O)O[C@H]1CCC2[C@@H]3CCC4=C(O)c5nocc5C[C@]4(C)C3CC[C@@]21C (some centres undefined)"
metric = "TGI"
experimental_result = "> 100 µM"

[[record]]
compound = "CCCn1c(N)c(C(=O)N/N=C(/C)c2cc3cccc(OC)c3o2)sc1=S"
metric = "TGI"
experimental_result = "> 100 µM"

[[record]]
compound = "O=S(=O)(O)c1ccc(N=Nc2ccc(N=Nc3c(O)ccc4ccccc34)cc2)cc1"
metric = "TGI"
experimental_result = "> 100 µM"

[[record]]
compound = "CCN1CCN=c2c3cc(OC)ccc3n3cnc4ccc1c2c43"
metric = "TGI"
experimental_result = "2.08 µM"

[[record]]
compound = "CCCNC(=S)/N=C/c1c(O)c2ccccc2[nH]c1=O"
metric = "TGI"
experimental_result = "> 100 µM"

[[record]]
compound = "C#CCN(CC#C)C(=O)C(=O)c1c[nH]c2ccc(OC)cc12"
metric = "TGI"
experimental_result = "41.2 µM"

[[record]]
compound = "CC1C[C@]2(C)C(=O)Nc3ccccc3[C@@H]2Nc2ccccc21 (some centres undefined)"
metric = "TGI"
experimental_result = "> 100 µM"

[[record]]
compound = "Cc1ccc(Cn2c(C)nc3c2C(=O)c2ccccc2C3=O)cc1"
metric = "TGI"
experimental_result = "> 100 µM"

[[record]]
compound = "COc1ccc(OC)c(N2C(=O)CSC2c2cc(OC)c(OC)c(OC)c2)c1 (centres undefined)"
metric = "TGI"
experimental_result = "> 100 µM"


Values compiled from PubChem BioAssay (NCI).
